Molecular target: T1, Bzz1-2, P38822
T1 sequence (P38822 568-633, looked up): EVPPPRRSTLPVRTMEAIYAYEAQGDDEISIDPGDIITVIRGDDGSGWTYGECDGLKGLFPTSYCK
Experiment: SPOT array
Conditions: median of control spots 4538
OUTCOME MEASURE: SPOT intensity

Examples from the recorded data:
So what's the measured SPOT intensity for this one? GDHPKGPPPPPPPDE 0

So what's the measured SPOT intensity for this one? SSAAPPPPPRRATPE 1

So what's the measured SPOT intensity for this one? RRGPAPPPPPRASRP 27

[I] KKEKKPPKIPKKVYT
[II] RKLRTVPGVPLIHLT
Task for the reader: decide whether I or II has the larger SPOT intensity. Give the chosen item's label as your response. I
